Biological target: full length human SIRPα v1 with a small beta-gal fragment (ED) fused to its C-terminal, expressed in K562 … (human, UniProt P78324 31-504)
Sequence (P78324 31-504): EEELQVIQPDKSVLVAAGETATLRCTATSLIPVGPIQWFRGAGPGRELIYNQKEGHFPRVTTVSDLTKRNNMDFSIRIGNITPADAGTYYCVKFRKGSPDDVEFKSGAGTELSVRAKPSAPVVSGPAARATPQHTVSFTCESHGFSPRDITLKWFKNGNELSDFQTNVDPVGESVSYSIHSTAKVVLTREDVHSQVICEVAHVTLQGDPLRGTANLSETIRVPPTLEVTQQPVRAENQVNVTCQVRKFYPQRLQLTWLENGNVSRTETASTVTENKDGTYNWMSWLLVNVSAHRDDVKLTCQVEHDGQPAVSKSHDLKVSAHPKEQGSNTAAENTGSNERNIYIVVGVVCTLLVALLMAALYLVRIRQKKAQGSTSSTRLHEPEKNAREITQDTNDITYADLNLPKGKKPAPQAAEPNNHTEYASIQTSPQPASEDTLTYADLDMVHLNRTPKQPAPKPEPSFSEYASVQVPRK
Assay: cell-based or functional assay
Measurement kind: SHP-1 recruitment blocking, IC50 (nM)

[[record]]
binder = "hu025.023 (antibody, V domains shown, Humanized 025; also called hu025.23) VH: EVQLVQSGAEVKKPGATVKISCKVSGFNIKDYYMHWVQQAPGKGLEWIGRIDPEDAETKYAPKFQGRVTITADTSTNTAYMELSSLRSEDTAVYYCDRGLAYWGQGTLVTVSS VL: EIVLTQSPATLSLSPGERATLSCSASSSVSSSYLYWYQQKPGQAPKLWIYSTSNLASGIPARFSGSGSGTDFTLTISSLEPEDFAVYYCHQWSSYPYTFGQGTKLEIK"
unit_label = "nM"
measured_result = 0.1

[[record]]
binder = "hu025.033 (antibody, V domains shown, Humanized 025) VH: EVQLVQSGAEVKKPGATVKISCKVSGFNIKDYYMHWVQQAPGKGLEWIGRIDPEDAETKYAPKFQGRVTITADTSTDTAYMELSSLRSEDTAVYYCDRGLAYWGQGTLVTVSS VL: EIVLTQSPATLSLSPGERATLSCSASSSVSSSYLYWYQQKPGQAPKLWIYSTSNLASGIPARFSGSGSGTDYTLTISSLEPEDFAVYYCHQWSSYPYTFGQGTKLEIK"
unit_label = "nM"
measured_result = 0.19

[[record]]
binder = "hu025.060 (antibody, V domains shown, Humanized 025; also called hu025.60) VH: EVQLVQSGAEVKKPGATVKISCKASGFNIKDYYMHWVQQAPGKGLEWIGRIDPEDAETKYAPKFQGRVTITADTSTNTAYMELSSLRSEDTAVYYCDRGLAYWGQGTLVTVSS VL: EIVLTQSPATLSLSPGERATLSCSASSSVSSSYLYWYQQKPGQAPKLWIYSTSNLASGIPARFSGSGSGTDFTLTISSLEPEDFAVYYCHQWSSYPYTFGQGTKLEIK"
unit_label = "nM"
measured_result = 0.09

